- assayed-system: tubulin (colchicine site) (Bos taurus, UniProt P81947+Q6B856)
- Construct: electrophoretically homogeneous bovine brain tubulin; from tissue; host or cells: bovine brain
- Sequence (P81947 whole entry): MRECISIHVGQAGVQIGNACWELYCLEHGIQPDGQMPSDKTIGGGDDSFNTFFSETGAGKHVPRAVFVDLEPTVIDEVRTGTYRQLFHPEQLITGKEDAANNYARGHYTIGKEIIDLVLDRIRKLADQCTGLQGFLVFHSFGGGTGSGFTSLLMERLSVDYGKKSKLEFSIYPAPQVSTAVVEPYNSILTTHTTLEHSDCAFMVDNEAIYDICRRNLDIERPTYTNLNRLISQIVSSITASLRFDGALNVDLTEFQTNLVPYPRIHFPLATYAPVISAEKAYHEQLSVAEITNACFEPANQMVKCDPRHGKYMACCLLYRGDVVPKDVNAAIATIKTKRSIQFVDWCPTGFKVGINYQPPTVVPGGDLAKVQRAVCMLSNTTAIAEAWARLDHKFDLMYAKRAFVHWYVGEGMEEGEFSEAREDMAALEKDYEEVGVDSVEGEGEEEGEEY
- Sequence (Q6B856 whole entry): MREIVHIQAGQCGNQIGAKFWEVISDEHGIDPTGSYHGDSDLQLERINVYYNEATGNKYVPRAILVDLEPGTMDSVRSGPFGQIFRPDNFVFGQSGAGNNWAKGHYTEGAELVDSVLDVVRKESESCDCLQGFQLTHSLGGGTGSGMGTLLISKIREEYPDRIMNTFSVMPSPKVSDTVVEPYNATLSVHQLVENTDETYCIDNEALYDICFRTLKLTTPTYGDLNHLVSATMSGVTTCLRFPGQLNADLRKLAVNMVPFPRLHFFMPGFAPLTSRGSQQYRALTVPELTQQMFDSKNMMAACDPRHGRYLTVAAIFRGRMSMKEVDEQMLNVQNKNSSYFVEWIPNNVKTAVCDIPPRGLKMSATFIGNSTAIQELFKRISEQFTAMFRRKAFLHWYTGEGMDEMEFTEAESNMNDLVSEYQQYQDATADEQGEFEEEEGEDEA
- assay-info: Inhibition of [3H]colchicine binding to tubulin
- Parameters: species or system bovine
- conditions-used: 5 μM [3H]colchicine, 1 μM tubulin, 5 μM test compound, 37 °C, 10 min; NA = not active; read-out: Tubulin Assay ICB: percent inhibition of [3H]colchicine binding

| compound | inhibition at 5 µM |
| --- | --- |
| COc1ccc(/C=C\c2cc(OC)c(OC)c(OC)c2)cc1O [CA-4, combretastatin A-4, reference compound] | 100% |
| CC[C@@]12CC(C(=O)OC)=C3Nc4ccccc4[C@@]34CCN(C[C@@H]3O[C@@H]31)[C@@H]24 [Compound 5, lochnericine] | 0% |
| CC[C@@]12CC(C(=O)OC)=C3Nc4cc(OC)ccc4[C@@]34CCN(C[C@@H]3O[C@@H]31)[C@@H]24 [Compound 6, 14,15-α-epoxy-11-methoxytabersonine] | 54% |
| CC[C@@]12CC(C(=O)OC)=C3Nc4cc(O)ccc4[C@@]34CCN(C[C@@H]3O[C@@H]31)[C@@H]24 [Compound 7, 11-hydroxylochnericine] | 35% |

---

- System: KB (originally isolated from epidermoid carcinoma of the nasopharynx)
- assay-info: Antiproliferative SRB assay, KB
- Format: cell-based
- conditions-used: Homo sapiens; SRB assay, 72 h; read-out: IC50 KB
- Source text: We tested the fourteen known aspidosperma-type alkaloids (1–14) against chemosensitive KB (originally isolated from epidermoid carcinoma of the nasopharynx) and P-gp over-expressing multidrug-resistant (MDR) KB subline KB-VIN, as well as three additional human cancer cell lines, A549 (lung carcinoma), MDA-MB-231 (triple negative breast cancer), and MCF-7 (estrogen receptor-positive breast cancer), using a sulforhodamine B (SRB) assay (Table 1). […]
pIC50: −log10 of the molar value.
This listing pairs compounds with measured pIC50.

| compound | value-relation-sign | pIC50 |
| --- | --- | --- |
| COC(=O)C1=C2Nc3cc(O)ccc3C23CCN2CC=CC(C(C)OC(C)=O)(C1)C23 [Compound 13, 19-(R)-acetoxy-11-hydroxytabersonine] | = | 6.15 |
| COC(=O)C1=C2Nc3ccccc3C23CCN2CC=CC(C(C)O)(C1)C23 [Compound 10, 19-(R)-hydroxytabersonine] | < | 4.40 |
| CC[C@]12C=C[C@@H](CC(C)=O)N3CC[C@]4(C(=C(C(=O)OC)C1)Nc1ccccc14)[C@@H]32 [Compound 3, 3α-acetonyl-tabersonine] | = | 6.22 |
| CC[C@@]12CC(C(=O)OC)=C3Nc4ccccc4[C@@]34CCN(C[C@H]3O[C@H]31)[C@@H]24 [Compound 8, pachysiphine] | < | 4.40 |
| CC[C@]12C=CCN3CC[C@]4(C(=C(C(=O)OC)C1)Nc1cc(OC)ccc14)[C@@H]32 [Compound 12, 11-methoxytabersonine] | = | 5.27 |
| CC[C@]12CCCN3CC[C@]4(C(=C(C(=O)OC)C1)Nc1ccccc14)[C@@H]32 [Compound 2, vincadifformine] | < | 4.40 |
| CC[C@@]12CC(C(=O)OC)=C3Nc4cc(OC)ccc4[C@@]34CCN(C[C@@H]3O[C@@H]31)[C@@H]24 [Compound 6, 14,15-α-epoxy-11-methoxytabersonine] | = | 6.30 |

---

- Test system: A549 (lung carcinoma)
- assay-info: Antiproliferative SRB assay, A549
- Assay type: cell-based
- conditions-used: Homo sapiens, A549, 72 h, read-out: IC50 A549
pIC50: −log10 of the molar value.
attribute-measured: pIC50

| compound-string | attribute-measured | meas-value |
| --- | --- | --- |
| CC[C@]12C=CCN3CC[C@]4(C(=C(C(=O)OC)C1)Nc1ccccc14)[C@@H]32 | pIC50 | 5.16 |
